Origin of values: ChEMBL document CHEMBL4477183

Tested on: Pseudomonas aeruginosa
experiment-description: Antimicrobial activity against Pseudomonas aeruginosa clinical isolates assessed as reduction in bacterial growth after 20 hrs by […]
Format: functional
Non-standard residues stand in square brackets, D forms with d. Residues, ends and D or L forms follow the SMILES beside them.
test-readout: MIC (µM)
Number in µM, nothing else.

Q: Please report the measured MIC for CC[C@@H](C)[C@@H](NC(=O)CN)C(=O)N[C@H](CCSC)C(=O)N[C@H](CO)C(=O)N[C@H](CO)C(=O)N[C@H](CC(C)C)C(=O)N[C@H](CCSC)C(=O)N[C@H](CCCCN)C(=O)N[C@H](CCCCN)C(=O)N[C@H](CC(C)C)C(=O)N[C@H](CCCCN)C(=O)N[C@H](CCCCN)C(=O)N[C@@H](C(=O)N[C@@H](C(=O)N[C@H](C)C(=O)N[C@H](CCCCN)C(N)=O)[C@H](C)CC)[C@H](C)CC (H-G[dI][dM][dS][dS][dL][dM][dK][dK][dL][dK][dK][dI][dI][dA][dK]-NH2)
A: 8.5
